target_of_assay: human TLR8 (Homo sapiens (Human), UniProt Q9NR97)
Sequence (Q9NR97 27-1041): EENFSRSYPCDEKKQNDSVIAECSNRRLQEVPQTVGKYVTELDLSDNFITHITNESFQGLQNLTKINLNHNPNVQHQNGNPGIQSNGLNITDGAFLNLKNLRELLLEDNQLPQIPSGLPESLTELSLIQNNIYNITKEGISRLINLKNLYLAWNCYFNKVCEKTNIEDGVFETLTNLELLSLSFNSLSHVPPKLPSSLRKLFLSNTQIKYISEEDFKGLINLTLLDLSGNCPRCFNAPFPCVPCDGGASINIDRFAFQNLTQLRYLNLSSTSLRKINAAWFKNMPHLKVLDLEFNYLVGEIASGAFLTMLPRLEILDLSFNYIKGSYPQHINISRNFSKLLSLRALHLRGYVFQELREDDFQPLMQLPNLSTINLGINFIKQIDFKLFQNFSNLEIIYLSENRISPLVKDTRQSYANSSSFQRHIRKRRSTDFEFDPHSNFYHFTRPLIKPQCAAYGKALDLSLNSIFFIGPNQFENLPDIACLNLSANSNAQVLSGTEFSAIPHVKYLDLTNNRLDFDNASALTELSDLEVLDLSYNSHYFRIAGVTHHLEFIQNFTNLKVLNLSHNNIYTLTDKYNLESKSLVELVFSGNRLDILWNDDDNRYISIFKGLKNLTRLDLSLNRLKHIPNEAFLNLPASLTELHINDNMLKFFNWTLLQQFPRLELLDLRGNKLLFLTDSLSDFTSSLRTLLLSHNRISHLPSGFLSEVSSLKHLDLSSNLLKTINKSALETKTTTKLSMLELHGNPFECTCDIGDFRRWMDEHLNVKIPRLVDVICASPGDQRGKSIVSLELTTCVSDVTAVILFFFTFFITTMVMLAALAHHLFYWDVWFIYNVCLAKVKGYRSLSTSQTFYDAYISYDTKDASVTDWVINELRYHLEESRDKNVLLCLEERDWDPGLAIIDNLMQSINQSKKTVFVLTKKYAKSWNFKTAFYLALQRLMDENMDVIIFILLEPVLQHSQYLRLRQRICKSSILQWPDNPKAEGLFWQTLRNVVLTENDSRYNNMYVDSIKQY
assay_info: TLR8 inhibition reporter assay (HEK-Blue SEAP)
condition_notes: read-out: TLR8 IC50; HEK-Blue cells overexpressing human TLR8, R848 15.9 μM stimulation, SEAP reporter
Entries and their IC50 values follow.
Expressed in nM, but write only the number.

Q: Report IC50 from human TLR8 (Homo sapiens (Human), UniProt Q9NR97) testing of CCN(CCC#N)C1CCN(c2ncc3[nH]c(-c4cc(C)c5ncnn5c4)c(C(C)C)c3c2C)CC1
Ans: 2.2

Q: Report IC50 from human TLR8 (Homo sapiens (Human), UniProt Q9NR97) testing of CCN(C)C1CCN(c2ncc3[nH]c(-c4cc(OC)c5ncnn5c4)c(C(C)C)c3c2F)CC1
Ans: 0.24

Q: Report IC50 from human TLR8 (Homo sapiens (Human), UniProt Q9NR97) testing of Cc1c(-c2[nH]c3cnc(C4CCC(NCC(F)F)CC4)cc3c2C(C)C)cn2ncnc2c1C (stereo not drawn) [Example 350]
Ans: 4.7

###

target_of_assay: UniProtKB Q9NR96
Sequence (Q9NR96 26-1032): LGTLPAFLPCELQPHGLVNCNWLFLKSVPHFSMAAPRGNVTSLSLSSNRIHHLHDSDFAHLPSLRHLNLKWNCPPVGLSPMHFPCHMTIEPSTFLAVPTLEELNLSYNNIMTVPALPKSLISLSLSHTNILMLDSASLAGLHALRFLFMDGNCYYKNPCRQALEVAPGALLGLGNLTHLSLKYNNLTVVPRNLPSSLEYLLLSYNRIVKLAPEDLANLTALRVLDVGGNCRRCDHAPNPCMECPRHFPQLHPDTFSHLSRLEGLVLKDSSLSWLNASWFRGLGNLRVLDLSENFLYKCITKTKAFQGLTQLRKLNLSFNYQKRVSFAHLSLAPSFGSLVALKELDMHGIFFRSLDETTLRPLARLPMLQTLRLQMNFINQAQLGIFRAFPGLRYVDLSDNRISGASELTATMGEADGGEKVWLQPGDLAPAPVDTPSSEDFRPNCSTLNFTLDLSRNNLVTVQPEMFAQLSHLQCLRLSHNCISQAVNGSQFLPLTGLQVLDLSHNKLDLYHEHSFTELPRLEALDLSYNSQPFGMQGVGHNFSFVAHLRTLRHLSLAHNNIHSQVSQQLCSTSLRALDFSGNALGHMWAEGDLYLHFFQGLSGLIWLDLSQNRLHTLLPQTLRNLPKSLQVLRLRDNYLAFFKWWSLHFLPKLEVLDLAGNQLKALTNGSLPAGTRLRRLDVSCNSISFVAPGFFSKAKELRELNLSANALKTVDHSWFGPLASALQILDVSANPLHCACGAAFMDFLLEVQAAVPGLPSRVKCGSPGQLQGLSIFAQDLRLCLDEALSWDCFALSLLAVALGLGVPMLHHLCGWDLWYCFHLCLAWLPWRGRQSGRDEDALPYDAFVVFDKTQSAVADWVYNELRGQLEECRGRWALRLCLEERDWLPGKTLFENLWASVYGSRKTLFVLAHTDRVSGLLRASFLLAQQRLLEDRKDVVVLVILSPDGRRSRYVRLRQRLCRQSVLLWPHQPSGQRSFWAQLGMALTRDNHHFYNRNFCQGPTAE
assay_info: TLR9 inhibition reporter assay (HEK-Blue SEAP);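 also: SEAP driven by IFN-β minimal promoter carrying five NF-κB and AP-1 sites, 22 h at 37 °C, compounds 0.05 nM–50 µM, inhibition scaled between agonist-plus-DMSO and reference-inhibitor wells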
condition_notes: read-out: TLR9 IC50; HEK-Blue cells overexpressing human TLR9, ODN2006 5 nM stimulation, SEAP reporter
Entries and their IC50 values follow.
In your response, put the unit directly after the numeric value.

Consider the worked cases shown below.
CCN(C)C1CCC(c2ncc3[nH]c(-c4cc(OC)c5ncnn5c4)c(C(C)C)c3c2C)CC1 (stereo not shown) [Example 116] | 0.766 µM
CCCN1CC2(C1)CN(c1ncc3[nH]c(-c4cc(OC)c5ncnn5c4)c(C(C)C)c3c1F)C2 | 1.48 µM
CNCC(=O)NC1CCN(c2cc3c(C(C)C)c(-c4cc(OC)c5ncnn5c4)[nH]c3cn2)CC1 | 0.677 µM

// next entry
Q: Please give the documented IC50 of COc1cc(-c2[nH]c3cnc(C4CCC(NCC(C)(C)C)C4)cc3c2C(C)C)cn2ncnc12 (stereo not shown) [Example 210]
Ans: 1.08 µM

###

Entries and their pIC50 values follow.
target_of_assay: human TLR8 (Homo sapiens (Human), UniProt Q9NR97)
assay_info: TLR8 inhibition reporter assay (HEK-Blue SEAP);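 also: SEAP driven by IFN-β minimal promoter with five NF-κB and AP-1 sites, compounds tested 0.05 nM to 50 µM, 22 h incubation, inhibition relative to agonist plus DMSO wells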
condition_notes: read-out: TLR8 IC50; HEK-Blue cells overexpressing human TLR8, R848 15.9 μM stimulation, SEAP reporter
Please keep in mind that pIC50 is minus log10 of the molar concentration; only the number is needed.

Consider the worked cases shown below.
COc1cc(-c2[nH]c3cnc(C4CCC(NCC(C)(C)OC)C4)cc3c2C(C)C)cn2ncnc12 (centres unmarked) [Example 211] | 7.36
COc1cc(-c2[nH]c3cnc(N4CCC(N(C)CC(C)(C)C)CC4)c(F)c3c2C(C)C)cn2ncnc12 | 8.82
Cc1c(-c2[nH]c3cnc(N4CCN(CCS(C)(=O)=O)CC4)c(F)c3c2C(C)C)cn2ncnc2c1C | 8.72
CCN(C)C1CCN(c2ncc3[nH]c(-c4cc(OC)c5ncnn5c4)c(C(C)C)c3c2C)CC1 | 9.31

Q: Please give the documented pIC50 of Cc1c(-c2[nH]c3cnc(N4CCC(NC5CCOCC5)CC4)c(F)c3c2C(C)C)cn2ncnc2c1C
Ans: 9.80

Q: Please give the documented pIC50 of Cc1cc(-c2[nH]c3cnc(C4CCN(CC(F)(F)F)CC4)c(F)c3c2C(C)C)cn2ncnc12
Ans: 6.80
